Subject of test: F protein of RSV B-1 (respiratory syncytial virus B-1, UniProt O36634 26-574)
Sequence (O36634 26-574): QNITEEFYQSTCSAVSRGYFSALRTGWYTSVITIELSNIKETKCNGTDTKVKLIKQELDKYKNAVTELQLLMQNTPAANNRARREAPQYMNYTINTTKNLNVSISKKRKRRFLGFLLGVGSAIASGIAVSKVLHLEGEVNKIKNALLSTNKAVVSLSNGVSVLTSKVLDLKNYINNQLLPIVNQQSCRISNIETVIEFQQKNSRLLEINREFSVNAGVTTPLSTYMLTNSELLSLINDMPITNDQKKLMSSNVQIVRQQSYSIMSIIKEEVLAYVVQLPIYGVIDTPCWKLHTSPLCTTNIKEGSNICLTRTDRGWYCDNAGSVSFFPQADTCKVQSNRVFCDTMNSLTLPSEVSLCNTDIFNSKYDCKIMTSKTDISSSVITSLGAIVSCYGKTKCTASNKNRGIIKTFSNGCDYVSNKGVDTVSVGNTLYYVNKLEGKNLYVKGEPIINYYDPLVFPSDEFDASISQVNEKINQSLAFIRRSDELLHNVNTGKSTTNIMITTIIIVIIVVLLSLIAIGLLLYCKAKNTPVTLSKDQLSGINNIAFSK
Protocol summary: cell-based or functional assay
Measurement name: ED50, plaque reduction, RSV B-1 (nM)
Give your result in nM as a bare value.

# return recorded ED50, plaque reduction, RSV B-1 for input IgG form of 38F10 (antibody, V domains shown) VH: EVQLLESGGDVVQPGKSLRLSCTASGFSITDFGIHWVRQAPGKGLEWVALISYNEVNIHYGESVRGRFTISRDIAKNTVYLQMNGLRPEDTGVYFCARDVWEDSWLSLACFQEWGQGSLVVVSS VL: DIQLTQSPPTLSASVGDRVSMTCRASQSISNWLAWYQQKPGKAPKLLIQKASNLEDGVPSRFTASGFGTEFTLTISSLQPDDFATYYCQQYNSYSGLSFGGGTKVDIKR
1.4

# return recorded ED50, plaque reduction, RSV B-1 for input IgG form of 104E5 (antibody, V domains shown) VH: QVQLEQSGAEVKKPGSSVKVSCKPSGGTFDTYTISWVRQAPGQRLEWLGRIIPSLGETNYAHKLQGRVTITADKATSVVYMDLSDLTSEDAAVYYCAFRITGPVDWVWDYGMDVWGQGTTVSVSS VL: DIQMTQSPSSLPASVGDRVTITCRASQNIKTYLNWYQQKPGRAPKLLISAVSNLQSGVPSRFSGTGSGTDFTLTISSLQPEDFATYYCQQSFSIPLTFGGGAKVEIKR
1.7
